The following molecules are shown together with reported 1 linker (protein+linker) values.
- assay_name: Stability of linkers L1-L4 conjugated to FGF21 (LC-MS)
- Format: physicochemical
- details: +4° C., 72 hrs
Just the number please, in %, no unit attached.

Use the examples below as a reference point.
| molecule | 1 linker (protein+linker) [%] |
| --- | --- |
| L1-FGF21ΔH-A129C: Linker-1 conjugated to FGF21ΔH-A129C protein (Table 4; Table 5 row L1) (conjugate, UniProt Q9NSA1 29-209, looked up, variant H1* A129C, Linker-1 attached) Fibroblast growth factor 21: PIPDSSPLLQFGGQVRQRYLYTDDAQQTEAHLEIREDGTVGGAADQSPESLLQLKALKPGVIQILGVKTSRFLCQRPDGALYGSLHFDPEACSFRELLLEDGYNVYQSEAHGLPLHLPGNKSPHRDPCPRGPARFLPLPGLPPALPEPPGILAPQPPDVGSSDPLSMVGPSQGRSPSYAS | 40 |
| L4-FGF21ΔH-A129C: Linker-4 conjugated to FGF21ΔH-A129C protein (Table 4; Table 5 row L4) (conjugate, UniProt Q9NSA1 29-209, looked up, variant H1* A129C, Linker-4 attached) Fibroblast growth factor 21: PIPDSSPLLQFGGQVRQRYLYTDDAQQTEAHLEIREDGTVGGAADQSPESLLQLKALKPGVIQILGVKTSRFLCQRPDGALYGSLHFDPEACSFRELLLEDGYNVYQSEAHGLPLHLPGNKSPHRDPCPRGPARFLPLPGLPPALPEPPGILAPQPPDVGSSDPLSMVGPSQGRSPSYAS | 42 |

Incoming: Check the records and state 1 linker (protein+linker) for L2-FGF21ΔH-A129C: Linker-2 conjugated to FGF21ΔH-A129C protein (Table 4; Table 5 row L2) (conjugate, UniProt Q9NSA1 29-209, looked up, variant H1* A129C, Linker-2 attached) Fibroblast growth factor 21: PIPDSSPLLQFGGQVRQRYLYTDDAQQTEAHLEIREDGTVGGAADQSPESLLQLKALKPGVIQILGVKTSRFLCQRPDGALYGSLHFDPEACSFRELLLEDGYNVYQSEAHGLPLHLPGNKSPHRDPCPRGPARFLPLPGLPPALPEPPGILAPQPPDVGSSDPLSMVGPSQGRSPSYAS
Outgoing: 37
